Reference source: PubChem BioAssay (NCI)

The reader will find reported growth inhibition values listed item by item below.
test: NCI Yeast Anticancer Drug Screen. Data for the sgs1 mgt1 strain (AID 161);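 note: 0% = growth of cultures given vehicle only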; settings: S. cerevisiae sgs1 mgt1 strain, at 50.0 µM, hits give high values
Compounds without any hit were thinned out: in the full panel of roughly 79,000, 15% have a hit.
Note: unit % is implicit; provide only the numeric part.

Illustrative cases are given below, each with its answer.
INSERT INTO results (compound, readout_kind, numeric_result) VALUES
  ('CCC(=N\NC(=S)NC)/C(C)=N\NC(=S)NC', 'growth inhibition', -6.5),
  ('CC1=NN(C(=O)CC(=O)Nc2ccc(C(=O)O)cc2)C(=O)C1N=Nc1ccccc1C(=O)O (configuration not stated)', 'growth inhibition', 6.25);

According to the records, this compound `CCOC(=O)NC(=O)c1cn(CCSCCOC(=O)NCCCCCCNC(=O)OCCSCCn2cc(C(=O)NC(=O)OCC)c(=O)[nH]c2=O)c(=O)[nH]c1=O` displays growth inhibition of 11.9

// field: growth inhibition; key: `CC(C)COC1=CC(=O)c2ccccc2C1=O` ; value = 18.6

# growth inhibition (compound: O=C(CC(O)(CCc1ccccc1)c1ccccc1)N1CCC(O)(c2ccccc2)CC1 (configuration not stated) ) is 98.2

Summary for this compound, `O=C(Nc1cc(Cl)ccc1Cl)Oc1c(Cl)cc(Cl)c(Cl)c1[N+](=O)[O-]` : growth inhibition is 29.1

Looking up `CC(=O)Cc1ccco1` , I see its growth inhibition listed as -8.8
